solubility listing for selected molecules.
Test: physchem
Type: physicochemical
Details: pH 7.4, aqueous buffer, thermodynamic from solid

SMILES CODE	VALUE PREFIX	solubility [µg/mL]
[2H]C([2H])([2H])OC(=O)N/C=C/CCCc1cc(O)c(C(=O)/C(C)=C/c2cnc(Oc3ccc(F)cc3)s2)c(=O)o1	<	100
[2H]C([2H])([2H])OC(=O)N/C=C/CCCc1cc([O-])c(C(=O)/C(C)=C/c2cnc(Oc3ccc(F)cc3)s2)c(=O)o1.[Na+]	=	10000

====

Target: S. aureus RNA polymerase (Staphylococcus aureus (strain NCTC 8325 / PS 47), UniProt P47768+Q2G0N5)
Assay: Fluorescence-detected assay of inhibition of Staphylococcus aureus RNA polymerase
Conditions: read-out: RNAP-inhibitory activity S. aureus RNAP IC50

SMILES CODE	IC50 [µM]
[2H]C([2H])([2H])OC(=O)N/C=C/CCCc1cc(O)c(C(=O)/C(C)=C/c2cnc(Oc3ccc(-c4ccccc4)cc3)s2)c(=O)o1	0.01
[2H]C([2H])([2H])OC(=O)N/C=C/CCCc1cc([O-])c(C(=O)/C(C)=C/c2cnc(Oc3ccc(-c4ccccc4)cc3)s2)c(=O)o1.[Na+]	0.03
[2H]C([2H])([2H])OC(=O)N/C=C/CCCc1cc([O-])c(C(=O)/C(C)=C/c2cnc(Oc3ccc(F)cc3)s2)c(=O)o1.[Na+]	0.03
[2H]C([2H])([2H])OC(=O)N/C=C/CCCc1cc(O)c(C(=O)/C(C)=C/c2cnc(Oc3ccc(F)cc3)s2)c(=O)o1	0.06
[2H]C([2H])([2H])OC(=O)N/C=C/CCCc1cc([O-])c(C(=O)/C(C)=C/c2cnc(Oc3ccc(F)c(Cl)c3)s2)c(=O)o1.[Na+]	0.003
[2H]C([2H])([2H])OC(=O)N/C=C/CCCc1cc(O)c(C(=O)/C(C)=C/c2cnc(Oc3ccc(F)c(Cl)c3)s2)c(=O)o1	0.001
